# target-under-test: Guanlyate kinase (UniProt Q0TBG1)
# Sequence (Q0TBG1 whole entry): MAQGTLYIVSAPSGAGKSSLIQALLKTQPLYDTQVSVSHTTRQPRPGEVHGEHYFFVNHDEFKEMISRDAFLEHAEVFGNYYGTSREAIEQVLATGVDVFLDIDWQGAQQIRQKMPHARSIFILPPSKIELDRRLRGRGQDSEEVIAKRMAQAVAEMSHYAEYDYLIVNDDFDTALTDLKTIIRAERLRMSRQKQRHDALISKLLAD
# method-notes: relative enzymatic activity vs untreated control (fraction); higher = less inhibition
# assay-context: 100 µM; incubation time: 2 h at 37 C
param class (str): category from relative enzymatic activity; see ranges bottom bin: < 0.6; middle bin: ≥ 0.6 and < 0.9; top bin: ≥ 0.9

[
  {
    "compound": "O=c1[nH]cc(F)c(=O)[nH]1",
    "answer-label": "middle bin"
  },
  {
    "compound": "NCCC(O)C(=O)NC1CC(N)C(OC2OC(CN)C(O)C(O)C2O)C(O)C1OC1OC(CO)C(O)C(N)C1O.O (stereo not drawn)",
    "answer-label": "middle bin"
  },
  {
    "compound": "CCC(C)C1NC(=O)C(CCNCS(=O)(=O)[O-])NC(=O)C(NC(=O)C(CCNCS(=O)(=O)[O-])NC(=O)C(NC(=O)C(CCNCS(=O)(=O)[O-])NC(=O)CCCCC(C)C)C(C)O)CCNC(=O)C(C(C)O)NC(=O)C(CCNCS(=O)(=O)[O-])NC(=O)C(CCNCS(=O)(=O)[O-])NC(=O)C(C(C)CC)NC1=O.[Na+].[Na+].[Na+].[Na+].[Na+] (stereo not drawn)",
    "answer-label": "top bin"
  },
  {
    "compound": "CCOC(=O)CCC(=O)O[C@H]1[C@H](O[C@@H]2[C@@H](C)[C@H](O[C@H]3C[C@@](C)(OC)[C@@H](O)[C@H](C)O3)[C@@H](C)C(=O)O[C@H](CC)[C@@](C)(O)[C@H](O)[C@@H](C)C(=O)[C@H](C)C[C@@]2(C)O)O[C@H](C)C[C@@H]1N(C)C",
    "answer-label": "top bin"
  },
  {
    "compound": "CO[C@@H]1[C@@H](OC(=O)c2ccc(C)[nH]2)[C@@H](O)[C@@H](Oc2ccc3c(c2C)OC(=O)[C@H](NC(=O)c2[nH]cc(CC(=O)Nc4cc5ccc(O[C@@H]6OC(C)(C)[C@H](OC)[C@@H](OC(=O)c7ccc(C)[nH]7)[C@H]6O)c(C)c5oc4=O)c2C)C3)CC1(C)C",
    "answer-label": "middle bin"
  }
]

Query: Quick check: band for O=C1CN(N=Cc2ccc([N+](=O)[O-])o2)C(=O)N1
Reply: middle bin

Query: Bin? CCCCCCCCCCCCC[N+](C)(C)Cc1ccccc1.O.[Cl-]
Reply: bottom bin

Query: Lab log: CN[C@@H]1[C@H](O)[C@H](NC)[C@H]2O[C@@]3(O)C(=O)C[C@@H](C)O[C@H]3O[C@@H]2[C@H]1O — assign relative enzymatic activity category
Reply: top bin

Query: For the record CN(C)[C@@H]1C(=O)[C@@H](C(N)=O)C(=O)[C@@]2(O)C(=O)[C@@H]3C(=O)c4c(O)c(NC(=O)CN5CCCC5)cc(F)c4C[C@H]3C[C@@H]12 , report the class its relative enzymatic activity corresponds to.
Reply: bottom bin
